# System under test: soluble guanylate cyclase (sGC) (Homo sapiens (Human), UniProt Q02108+Q02153)
# Sequence (Q02153 whole entry): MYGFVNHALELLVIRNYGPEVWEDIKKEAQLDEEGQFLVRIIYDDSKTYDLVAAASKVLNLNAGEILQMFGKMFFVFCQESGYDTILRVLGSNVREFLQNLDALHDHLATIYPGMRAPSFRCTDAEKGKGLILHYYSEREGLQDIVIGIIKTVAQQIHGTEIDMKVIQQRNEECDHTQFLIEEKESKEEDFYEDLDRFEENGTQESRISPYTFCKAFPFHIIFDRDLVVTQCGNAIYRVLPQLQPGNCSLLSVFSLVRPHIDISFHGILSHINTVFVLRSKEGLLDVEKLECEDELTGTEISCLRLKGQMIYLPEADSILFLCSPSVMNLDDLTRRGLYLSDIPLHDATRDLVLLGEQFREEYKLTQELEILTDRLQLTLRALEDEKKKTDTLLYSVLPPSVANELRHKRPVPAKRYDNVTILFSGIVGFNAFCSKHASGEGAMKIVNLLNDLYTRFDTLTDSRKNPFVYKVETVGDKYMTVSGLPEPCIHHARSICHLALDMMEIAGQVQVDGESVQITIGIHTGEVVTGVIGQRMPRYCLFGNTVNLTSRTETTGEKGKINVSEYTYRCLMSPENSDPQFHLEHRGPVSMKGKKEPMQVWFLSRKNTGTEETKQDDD
# Sequence (Q02108 whole entry): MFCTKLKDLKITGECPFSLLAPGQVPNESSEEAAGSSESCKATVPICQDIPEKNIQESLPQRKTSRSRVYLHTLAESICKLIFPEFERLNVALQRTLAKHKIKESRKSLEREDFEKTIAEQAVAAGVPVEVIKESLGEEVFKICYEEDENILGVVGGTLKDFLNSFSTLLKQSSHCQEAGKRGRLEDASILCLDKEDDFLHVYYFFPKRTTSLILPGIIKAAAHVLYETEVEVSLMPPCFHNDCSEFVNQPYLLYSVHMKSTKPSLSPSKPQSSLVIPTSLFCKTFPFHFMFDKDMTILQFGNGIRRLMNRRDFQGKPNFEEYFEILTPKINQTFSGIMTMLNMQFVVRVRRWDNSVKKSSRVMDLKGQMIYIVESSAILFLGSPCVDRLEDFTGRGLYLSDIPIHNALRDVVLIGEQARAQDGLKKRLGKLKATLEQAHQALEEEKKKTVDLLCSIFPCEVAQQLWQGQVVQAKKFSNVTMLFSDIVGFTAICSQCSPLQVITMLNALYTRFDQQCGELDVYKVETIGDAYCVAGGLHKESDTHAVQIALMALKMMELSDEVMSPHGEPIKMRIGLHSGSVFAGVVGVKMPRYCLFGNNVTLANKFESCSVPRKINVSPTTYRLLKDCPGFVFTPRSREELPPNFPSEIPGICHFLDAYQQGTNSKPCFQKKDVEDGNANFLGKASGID
# Procedure details: sGC-HEK-cGMP assay, new protocol with DETA-NONOate, LC/MS detection (Example 2C)
# Type: cell-based
# Recorded conditions: HEK293 cells, 10 μM DETA-NONOate, LC/MS detection; concentration eliciting 50% of high control response (30 μM I-329); read-out: Absolute EC50 (uM) - binned
Metric: EC50

O=C(Nc1ccnc(-c2cc(-c3ccon3)n(Cc3ccccc3F)n2)n1)c1cocn1 [Compound I-557] = > 1 µM

Now look at this one.
Problem: Given the compound O=S(=O)(CC(F)(F)F)Nc1ccnc(-c2cc(-c3ccon3)n(Cc3ccccc3F)n2)n1 [Compound I-444] , what is its reported EC50?
Solution: 0.101 to 1 µM

---

# System under test: soluble guanylate cyclase (sGC) (Homo sapiens (Human), UniProt Q02108+Q02153)
# Procedure details: sGC-HEK-cGMP assay, new protocol with DETA-NONOate, LC/MS detection (Example 2C)
# Type: cell-based
# Recorded conditions: read-out: Absolute EC50 (uM) - binned
This section presents molecules with their documented EC50 values.

O=C(CN1Cc2ccccc2C1=O)Nc1ccnc(-c2cc(-c3ccon3)n(Cc3ccccc3F)n2)n1 [Compound I-599] = > 1 µM
O=c1c(O)c(Nc2ccnc(-c3cc(-c4ccon4)n(Cc4ccccc4F)n3)n2)c1=O [Compound I-402] = > 1 µM
O=S(=O)(CC(F)(F)F)Nc1ccnc(-c2cc(-c3ccon3)n(Cc3ccccc3F)n2)n1 [Compound I-444] = 0.101 to 1 µM

Problem: Given the molecule Cc1cc(-c2ncc(F)c(N3CCC[C@H](C)[C@@H]3C(=O)O)n2)nn1Cc1ccccc1F [Compound I-412] , what is its reported EC50?
Solution: > 1 µM

Problem: Given the molecule O=C1CC(C(=O)Nc2ccnc(-c3cc(-c4ccon4)n(Cc4ccccc4F)n3)n2)CN1 (stereo not shown) [Compound I-464] , what is its reported EC50?
Solution: 0.101 to 1 µM

Problem: Given the molecule O=C(O)[C@@H]1CN(c2nc(-c3cc(-c4ccon4)n(Cc4ccccc4F)n3)ncc2F)C[C@H]1C(F)(F)F [Compound I-424] , what is its reported EC50?
Solution: < 0.1 µM

Problem: Given the molecule Fc1ccccc1Cn1nc(-c2ncc(F)c(NCC(F)(F)F)n2)cc1-c1ccon1 [Compound I-466] , what is its reported EC50?
Solution: < 0.1 µM

---

# System under test: soluble guanylate cyclase (sGC) (Homo sapiens (Human), UniProt Q02108+Q02153)
# Procedure details: sGC-HEK-cGMP assay, new protocol with DETA-NONOate, LC/MS detection (Example 2C)
# Format: cell-based
# Recorded conditions: read-out: Absolute EC50 (uM) - binned
Metric: EC50

Use these answered entries as a reference point.
CC(C)N(C[C@H](O)CO)c1nc(-c2cc(-c3ccon3)n(Cc3ccccc3F)n2)ncc1F = 0.101 to 1 µM
COCCS(=O)(=O)Nc1ccnc(-c2cc(-c3ccon3)n(Cc3ccccc3F)n2)n1 = 0.101 to 1 µM
CC(C)C(Nc1nc(-c2cc(-c3ccon3)n(Cc3ccccc3F)n2)ncc1F)C(=O)NC1CC1 (centres unmarked) = < 0.1 µM
CC1(C(=O)NC2CC2)C(=O)Nc2nc(-c3cc(-c4ccon4)n(Cc4ccccc4F)n3)nc(N)c21 (centres unmarked) = 0.101 to 1 µM
CC(=O)OCC(=O)Nc1nc(-c2cc(-c3ccon3)n(Cc3ccccc3F)n2)ncc1F = 0.101 to 1 µM
O=C(Cn1cnc2ccccc2c1=O)Nc1ccnc(-c2cc(-c3ccon3)n(Cc3ccccc3F)n2)n1 = > 1 µM
COCC(=O)Nc1ccnc(-c2cc(-c3ccon3)n(Cc3ccccc3F)n2)n1 = > 1 µM

Now look at this one.
Problem: Given the compound `CC(=O)NS(=O)(=O)CCNc1nc(-c2cc(-c3ccon3)n(Cc3ccccc3F)n2)ncc1F` , what is its reported EC50?
Solution: 0.101 to 1 µM
